assay: DPPH radical scavenging activity assay; settings: Table S4, concentration not given
Checkbox rule: Inhibitory rate (%), DPPH (Table S4) lower than 30% = Criterion met; Inhibitory rate (%), DPPH (Table S4) not lower than 30% = Criterion not met.

Here are 3 compounds together with their reported answers.
Inhibitory rate (%), DPPH (Table S4) strictly < 30% for this compound? O=C1O[C@H]([C@@H](O)CO)C(O)=C1O [Vitamin C, reference compound]
Criterion not met

Item `COc1cc(O)ccc1O[C@@H]1O[C@H](CO)[C@@H](O)[C@H](O)[C@H]1O` : Inhibitory rate (%), DPPH (Table S4) beneath 30%, strictly?
Criterion not met

Lab log: compare recorded Inhibitory rate (%), DPPH (Table S4) with 30%; is it strictly lower for `COc1ccc([C@H]2OC[C@H]3[C@@H]2CO[C@@H]3c2ccc(OC)c(O[C@@H]3O[C@H](CO)[C@@H](O)[C@H](O)[C@H]3O)c2)cc1O` ?
Criterion not met

More entries:
Consider OC[C@H]1O[C@@H](Oc2ccccc2O)[C@H](O)[C@@H](O)[C@@H]1O [Compound 21, pyrocatechol 1-O-β-D-glucopyranoside] . Does its Inhibitory rate (%), DPPH (Table S4) lie strictly below 30%?
Criterion not met

Below 30% on Inhibitory rate (%), DPPH (Table S4)? Entry O=c1ccc2c(O)cc3c(c2o1)C[C@@H](O)[C@@H](c1ccc(O)c(O)c1)O3 [Compound 15, isoepiphyllocoumarin]
Criterion not met

Given the entry `COc1cc(CCC(=O)CCCCc2ccccc2)ccc1O` , would its reported Inhibitory rate (%), DPPH (Table S4) be below 30%?
Criterion met

Could you please tell me whether Inhibitory rate (%), DPPH (Table S4) recorded for O=c1ccc2c3c(c(O)cc2o1)C[C@@H](O)[C@@H](c1ccc(O)c(O)c1)O3 [Compound 16, epiphyllocoumarin] is less than 30%?
Criterion not met

I'd appreciate it if you could check whether `COc1cc(O)c2c(=O)cc(-c3ccccc3)oc2c1` has Inhibitory rate (%), DPPH (Table S4) smaller than 30%.
Criterion met

Given `COc1cc(O)cc(OC)c1O[C@@H]1O[C@H](CO)[C@@H](O)[C@H](O)[C@H]1O` , is recorded Inhibitory rate (%), DPPH (Table S4) strictly lower than 30%?
Criterion not met

---

Assay: ABTS radical scavenging activity assay
Conditions: concentration 200 μM; "-" not active
Description: The ABTS radical scavenging activity was examined as previously reported at room temperature (25 °C). […] Next, 200 μL of the mixture was taken out and transferred into a 96-well plate, which was used for measuring the absorbance by a microplate reader at 734 nm (ODsample). […] The ABTS radical scavenging capacity was calculated as following:ABTS radical scavenging capacity (%) = [1 − (ODsample − ODcontrol)/ODblank] × 100%
observedProperty: ABTS Inhibitory Rate (%)
One number for each entry, in %.

The examples below pair each entry with its known result.
So, COc1cc(CCC(=O)CCCCc2ccccc2)ccc1O [Compound 6, yakuchinone A] ? Its ABTS Inhibitory Rate (%) was 4.42

Lookup result for COc1cc(O)c2c(=O)cc(-c3ccccc3)oc2c1 [Compound 13, tectochrysin] ; measured ABTS Inhibitory Rate (%): 91.93

Notebook: Cc1c(C)c2c(c(C)c1O)CCC(C)(C(=O)O)O2 (stereo not drawn) [trolox, Trolox, reference compound] , ABTS Inhibitory Rate (%) read as 92.69

GET /value?item= COC(=O)C1OC(Oc2c(-c3ccc(O)cc3)oc3cc(O)cc(O)c3c2=O)C(OC2OC(C)C(O)C(O)C2O)C(OC(C)=O)C1OC(C)=O (stereo not drawn) [Compound 2] &field=ABTS Inhibitory Rate (%) returns 93.04

Lab note: OC[C@H]1O[C@@H](Oc2ccccc2O)[C@H](O)[C@@H](O)[C@@H]1O [Compound 21, pyrocatechol 1-O-β-D-glucopyranoside] gave ABTS Inhibitory Rate (%) of 92.57

What the record says about COc1cc(O)cc(OC)c1O[C@@H]1O[C@H](CO)[C@@H](O)[C@H](O)[C@H]1O [Compound 19] : ABTS Inhibitory Rate (%) is 92.57

Respectfully, I request ABTS Inhibitory Rate (%) for each entry included below.
1. O=c1ccc2c(O)cc3c(c2o1)C[C@@H](O)[C@@H](c1ccc(O)c(O)c1)O3 [Compound 15, isoepiphyllocoumarin]
2. COC(=O)[C@H]1O[C@@H](Oc2c(-c3ccc(O)cc3)oc3cc(O)cc(O)c3c2=O)[C@H](O[C@@H]2O[C@@H](C)[C@H](O)[C@@H](O)[C@H]2O)[C@@H](O)[C@@H]1O [Compound 9]
3. COc1cc(CC(O)C(O)CC2OC(CC(O)C(O)Cc3ccc(O)c(OC)c3)C3C(c4cc(OC)c(O)c(OC)c4)OC(c4cc(OC)c(O)c(OC)c4)C23)ccc1O (stereo not drawn) [Compound 1, Aloxy A]

[71.48, 92.39, 91.09]

---

assay: DPPH radical scavenging activity assay; settings: Table S4, concentration not given
Exercise: state measured Inhibitory rate (%), DPPH (Table S4) for each of the molecules provided.

Per the record, COc1ccc(-c2oc3cc(OC)cc(O)c3c(=O)c2O)cc1 [Compound 12, 3,5-dihydroxy-4′,7-dimethoxyflavone] has Inhibitory rate (%), DPPH (Table S4) of 79.80 ± 2.02%

Per the records, this molecule ( OC[C@H]1O[C@@H](OCc2ccccc2)[C@H](O)[C@@H](O)[C@@H]1O [Compound 17, benzyl O-β-D-glucopyranoside] ) has Inhibitory rate (%), DPPH (Table S4) equal to 25.74 ± 1.49%

// switching to the query molecule
Reported Inhibitory rate (%), DPPH (Table S4) for COC(=O)[C@H]1O[C@@H](Oc2c(-c3ccc(O)cc3)oc3cc(O)cc(O)c3c2=O)[C@H](O[C@@H]2O[C@@H](C)[C@H](O)[C@@H](O)[C@H]2O)[C@@H](O)[C@@H]1O [Compound 9] was 43.07 ± 3.99%

---

assay: ABTS radical scavenging activity assay
API: label(entry) gives rule met if the entry's ABTS IC50 ± SD is strictly smaller than 30 µg/mL; on equality or larger values it gives rule not met.

Look over these answered cases.
Determine if COc1cc(CCC(=O)CC(O)CCc2ccc(O)c(OC)c2)ccc1O (stereo not drawn) [Compound 7, hexahydrocurcumin] shows ABTS IC50 ± SD strictly lower than 30 µg/mL.
rule met

I'd appreciate it if you could check whether COc1ccc(-c2oc3cc(OC)cc(O)c3c(=O)c2O)cc1 [Compound 12, 3,5-dihydroxy-4′,7-dimethoxyflavone] has ABTS IC50 ± SD smaller than 30 µg/mL.
rule met

Determine whether this compound shows ABTS IC50 ± SD lower than 30 µg/mL (ties excluded): COc1cc(CC(O)C(O)CC2OC(CC(O)C(O)Cc3ccc(O)c(OC)c3)C3C(c4cc(OC)c(O)c(OC)c4)OC(c4cc(OC)c(O)c(OC)c4)C23)ccc1O (stereo not drawn) [Compound 1, Aloxy A]
rule not met

ABTS IC50 ± SD strictly < 30 µg/mL for this compound? O=c1ccc2c3c(c(O)cc2o1)C[C@@H](O)[C@@H](c1ccc(O)c(O)c1)O3 [Compound 16, epiphyllocoumarin]
rule met

More entries:
Below 30 µg/mL on ABTS IC50 ± SD? Entry COC(=O)C1OC(Oc2c(-c3ccc(O)cc3)oc3cc(O)cc(O)c3c2=O)C(OC2OC(C)C(O)C(O)C2O)C(OC(C)=O)C1OC(C)=O (stereo not drawn) [Compound 2]
rule met

Quick check: does COc1cc(O)c2c(=O)cc(-c3ccccc3)oc2c1 [Compound 13, tectochrysin] have ABTS IC50 ± SD under 30 µg/mL?
rule met

Hello, is ABTS IC50 ± SD of the following compound strictly smaller than 30 µg/mL? COc1cc(O)ccc1O[C@@H]1O[C@H](CO)[C@@H](O)[C@H](O)[C@H]1O [Compound 20]
rule met

hey, is ABTS IC50 ± SD for COC(=O)[C@H]1O[C@@H](Oc2c(-c3ccc(O)cc3)oc3cc(O)cc(O)c3c2=O)[C@H](O[C@@H]2O[C@@H](C)[C@H](O)[C@@H](O)[C@H]2O)[C@@H](O)[C@@H]1O [Compound 9] lower than 30 µg/mL or not?
rule met

Does this compound meet the criterion ABTS IC50 ± SD < 30 µg/mL? COc1cc(O)cc(OC)c1O[C@@H]1O[C@H](CO)[C@@H](O)[C@H](O)[C@H]1O [Compound 19]
rule met

Strictly below 30 µg/mL: is that where ABTS IC50 ± SD of O=C1C[C@@H](c2ccccc2)Oc2cc(O)cc(O)c21 [Compound 14, pinocembrin] sits?
rule met

Lab note: confirm whether the reported ABTS IC50 ± SD for this compound is below 30 µg/mL, equality not counting. compound: Cc1c(C)c2c(c(C)c1O)CCC(C)(C(=O)O)O2 (stereo not drawn) [trolox, Trolox, reference compound]
rule not met

For OC[C@H]1O[C@@H](Oc2ccccc2O)[C@H](O)[C@@H](O)[C@@H]1O [Compound 21, pyrocatechol 1-O-β-D-glucopyranoside] , is the recorded ABTS IC50 ± SD below the cut-off of 30 µg/mL?
rule not met

In the record for COc1ccc([C@H]2OC[C@H]3[C@@H]2CO[C@@H]3c2ccc(OC)c(O[C@@H]3O[C@H](CO)[C@@H](O)[C@H](O)[C@H]3O)c2)cc1O [Compound 22] , is ABTS IC50 ± SD less than 30 µg/mL?
rule not met

Is ABTS IC50 ± SD strictly under 30 µg/mL for the entry COc1cc(CC/C=C/C(=O)CCc2ccc(O)c(OC)c2)ccc1O [Compound 8, gingerenone A] ?
rule not met
